test system: CYP3A4; test: Human CYP3A4 induction assay (mRNA, cryopreserved human hepatocytes); settings: 10 uM test compound, 72 hours, percent of control (rifampin positive control)
value-type: Hu CYP3A4 mRNA Induction (10 uM POC) (%)

These solved cases illustrate the format of a correct answer.
So what Hu CYP3A4 mRNA Induction (10 uM POC) did COc1cc(C2CCC2)ccc1-n1c(=O)ccc2cc(S(=O)(=O)Nc3ccon3)ccc21 (atropisomer, axis not shown; (P)) get with CYP3A4?
18.57

So what Hu CYP3A4 mRNA Induction (10 uM POC) did COc1cc([C@H]2C[C@H](C(F)(F)F)C2)ccc1-n1c(=O)ccc2cc(S(=O)(=O)Nc3ncccn3)ccc21 (atropisomer, axis not shown; (P)) get with CYP3A4?
19.16

So what Hu CYP3A4 mRNA Induction (10 uM POC) did COc1cc([C@H]2C[C@H](C(F)(F)F)C2)c(F)cc1-n1c(=O)ccc2cc(S(=O)(=O)Nc3ccon3)ccc21 (single isomer, unassigned) get with CYP3A4?
16.35

So what Hu CYP3A4 mRNA Induction (10 uM POC) did COc1cc(C2CCC2)c(F)cc1-n1c(=O)ccc2cc(S(=O)(=O)Nc3ncco3)ccc21 (atropisomer, axis not shown; (P)) get with CYP3A4?
89.26

(A) COc1cc(C2CC2)c(F)cc1-n1c(=O)ccc2cc(S(=O)(=O)Nc3ccon3)ccc21 [Compound X, reference compound]
(B) COc1cc(C2CCC2)c(Cl)cc1-n1c(=O)ccc2cc(S(=O)(=O)Nc3ncccn3)ccc21 (atropisomer, axis not shown; (P))
I'd appreciate it if you could identify which of A and B has the greater Hu CYP3A4 mRNA Induction (10 uM POC). Please respond with the label that marks your chosen entry.
A
